system: MDCK cells; conditions: dog, 48 h
I'd appreciate it if you could supply CC50 values for the items below.

Form field - read-out: CC50; system: MDCK cells; submitted item: CC1(C)CC[C@]2(C(=O)O[C@H]3OC(CO)[C@@H](O)C(O)C3O)C(O)C[C@]3(C)C(=CC[C@@H]4[C@@]5(C)CC[C@H](O)C(C)(C)[C@@H]5CC[C@]43C)[C@@H]2C1 (some centres unmarked)
> 200 µM

Find CC50 (MDCK cells) for the entry CCOC(=O)C1=C[C@@H](OC(CC)CC)[C@H](NC(C)=O)[C@@H](N)C1 [OSV-P, oseltamivir phosphate, reference compound]
> 200 µM
